- Test system: K562;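 note: after 48 h exposure read by CellTiter-Glo luminescence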
- assay explanation: cell viability relative to vehicle control; higher = less cytotoxic
- cond: 10 µM; SRSF2 genotype: SRSF2 wt/wt
Where a name gives a salt, the structure may show the parent alone.
measure name: cell viability

molecule=COc1ccc2c(c1)[C@]1(C[C@H]1c1ccc3c(/C=C/c4ccc(CN5C[C@@H](C)O[C@@H](C)C5)cc4)n[nH]c3c1)C(=O)N2 recorded_result=17.7%
molecule=O=C(Oc1cc(S(=O)(=O)c2ccccc2)ccc1[N+](=O)[O-])c1ccc(Cl)cc1 recorded_result=106%
molecule="Nc1ncnc2c1ncn2C(C=O)OC(C=O)CO (centres undefined) [Adenosine Dialdehyde (ADOX)]" recorded_result=69.3%
molecule="C=C[C@]1(C)C[C@@H](OC(=O)CSCCN(CC)CC)[C@]2(C)[C@H](C)CC[C@]3(CCC(=O)[C@H]32)[C@@H](C)[C@@H]1O [Tiamulin fumarate]" recorded_result=89.8%
